Target: NocT WT (Agrobacterium fabrum)
Construct: Cloning of mature OccJ, NocT-G97S, OccJ-S91G, OccJ-N202D, LAO and LAO-Q122A; made in house
Sequence (P35120 26-283): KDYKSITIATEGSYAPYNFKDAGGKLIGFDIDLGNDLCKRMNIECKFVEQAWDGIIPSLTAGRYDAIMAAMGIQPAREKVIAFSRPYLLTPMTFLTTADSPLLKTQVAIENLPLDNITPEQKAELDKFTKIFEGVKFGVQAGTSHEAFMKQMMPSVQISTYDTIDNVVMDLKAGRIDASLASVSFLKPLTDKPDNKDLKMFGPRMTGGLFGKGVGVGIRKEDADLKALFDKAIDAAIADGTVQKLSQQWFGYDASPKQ
Type: binding, Agrobacterium tumefaciens
Settings: ITC, 20 °C

{"Smiles Input": "C[C@@H](N[C@@H](CCCN)C(=O)O)C(=O)O", "Entropic contribution (-TΔS)": "-3.517 kcal/mol"}
{"Smiles Input": "N=C(N)NCCCC[C@H](NCC(=O)O)C(=O)O", "Entropic contribution (-TΔS)": "-4.309 kcal/mol"}
{"Smiles Input": "NC(N)=NCCC[C@H](NCC(=O)O)C(=O)O", "Entropic contribution (-TΔS)": "-6.39 kcal/mol"}
{"Smiles Input": "NCCC[C@H](NCC(=O)O)C(=O)O", "Entropic contribution (-TΔS)": "-6.83 kcal/mol"}
